Assay: NCI Yeast Anticancer Drug Screen. Data for the sgs1 mgt1 strain (AID 161);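 further: 0% = growth of cultures given vehicle only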
Details: S. cerevisiae sgs1 mgt1 strain, at 50.0 µM
The panel holds about 79,000 compounds, 15% with a hit somewhere; the sample as a whole holds those more often. Calls of active or inactive are those of the source. No stated cut-off is given here; in the data, active means growth inhibition above about 70%; inactive means the rest.
Give one outcome, nothing more. List: active, inactive

# count of solved cases: 5
CC(=O)OC1COC(n2cnc3c(N)ncnc32)C(OC(C)=O)C1OC(C)=O (stereo not drawn)    inactive
C/C(Cl)=C/CC1(C)CCCC(C)(C)CC1=O (stereo not drawn)    inactive
CCN(CC)CCOC(=O)Nc1cc(C)cc(C)c1    inactive
CC1(C)C(O)C(C)(C)C1O (stereo not drawn)    inactive
O=C1c2cccc3c([N+](=O)[O-])ccc(c23)C(=O)N1CC1CCCO1 (stereo not drawn)    active

Query :: Per the records of this test, what outcome belongs to "CCCc1cc2c(cc1CSc1ccccc1C(=O)O)OCO2" ?
Result :: inactive

Query :: And then "CC1=CC(C)(C)Nc2ccccc2N1" , what is it?
Result :: inactive

Query :: Proceed to "O=C(CCl)NCCc1ccccc1"
Result :: inactive

Query :: Now give it for CCOC(=O)CC1(C)NC(=O)NC1=O (stereo not drawn) too.
Result :: inactive

Query :: What about "O=c1c2cc([N+](=O)[O-])ccc2[nH]n1Cc1ccccn1" ?
Result :: inactive

====

Test: NCI Yeast Anticancer Drug Screen. Data for the cln2 rad14 strain (AID 165);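 further: 0% = growth equal to vehicle treated cultures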
Settings: S. cerevisiae cln2 rad14 strain, at 50.0 µM, stronger effect = higher value
Compounds without any hit were thinned out: in the full panel of roughly 79,000, 15% have a hit.
recordedMetric: growth inhibition (%)
Numbers only, in %.

COc1ccc(C(=O)c2ccc(Cl)cc2)c(O)c1OC    3.9
Cc1cccc(C)c1N=O    22.8
CC(C)c1nc2c(c(=O)o1)CCS2    -8.1
CCCCNC(=O)Nc1cc(C)ccc1C    -9.75
CCOP(=O)(OCC)OC1CC(n2cnc3c(N(CC)CC)ncnc32)OC1CO[Si](C)(C)C(C)(C)C (stereo unspecified)    38.8

Please give growth inhibition, item by item, for the list that follows.
1. OCc1cn(C(c2ccccc2)(c2ccccc2)c2ccccc2)cn1
2. CCOC(=O)C(N=Cc1ccc([N+](=O)[O-])cc1)C(O)c1ccc([N+](=O)[O-])cc1 (stereo unspecified)
3. Cc1ccc(NCC#N)cc1
4. CCOc1c(OC)ccc(/C(C)=N\O)c1OCC
5. Cc1cc2c(C(C)C)c(O)c(O)c(C=NCc3ccc(Br)cc3)c2c(O)c1-c1c(C)cc2c(C(C)C)c(O)c(O)c(C=NCc3ccc(Br)cc3)c2c1O
6. NC(=O)c1cc(Cl)c(N)c(Cl)c1

Result ::
1: -0.85; 2: 14.9; 3: -12.6; 4: -1.7; 5: -22.1; 6: -5.25

====

Experiment: NCI Yeast Anticancer Drug Screen. Data for the bub3 strain (AID 167)
Settings: S. cerevisiae bub3 mutant strain, at 50.0 µM, stronger effect = higher value
About 79,000 compounds went through this panel and 15% of them were active in at least one assay; those are over-represented in the sample as a whole. Where a SMILES comes first, the peptide text is derived from it. [ ]: non-standard residue; d: D form. The star is where a group is joined. ξ: configuration not given here. Tos = Cc1ccc(S(=O)(=O)*)cc1; ξY = NC(Cc1ccc(O)cc1)C(=O)O
# binarize growth inhibition: threshold 20% inclusive, high side True, low side False

Known results for molecules:
CC1(C)C(O)c2ccccc2OC1N1CCN(C2Oc3ccccc3C(O)C2(C)C)CC1 (stereo unspecified)    False
CC(C)OC(CCCl)c1ccccc1 (stereo unspecified)    False
O=C(O)c1c[n+]([O-])ccc1Cl    False

Query :: Exam item: decide whether the reported growth inhibition for "O=C1CN(c2cccc(Cl)c2)C(=O)CN1/N=C/c1ccc(O)c(O)c1" is at least 20%.
Result :: True

Query :: Then COC(=O)C(Cc1ccc(O)cc1)NC(=O)CNS(=O)(=O)c1ccc(C)cc1 (stereo not drawn) (Tos-Gly-[ξY]-OMe) ?
Result :: False
